# Test system: Rattus norvegicus
# MEASUREMENT DESCRIPTION: Anti-inflammatory activity in Rattus norvegicus Wistar (rat) assessed as inhibition of carrageenan-induced paw edema at 25 mg/kg, po administered 30 min post carrageenan challenge measured at 5 hr relative to control
# Format: functional

| MOL | READING UNIT | inhibition in vivo at 25 mg/kg |
| --- | --- | --- |
| CC(=O)c1ccc(NS(C)(=O)=O)c(OC2CCCC2)c1 | % | 57.4 |
| CCCCCCCCOc1cc(C(C)=O)ccc1NS(C)(=O)=O | % | 62.5 |
| CCOc1cc(C(C)=O)ccc1NS(C)(=O)=O | % | 54.6 |
| CCCOc1cc(C(C)=O)ccc1NS(C)(=O)=O | % | 62.1 |

###

Overview of reported ED50 across a group of molecules:
# Tested on: Rattus norvegicus
# MEASUREMENT DESCRIPTION: Anti-inflammatory activity in po dosed Rattus norvegicus Wistar (rat) assessed as inhibition of carrageenan-induced paw edema administered 30 min post carrageenan challenge measured at 5 hr
# Assay type: functional
READOUT KIND: ED50 (mg/kg)

| MOL | READING UNIT | ASSAY RESULT |
| --- | --- | --- |
| CCCCCCCCOc1cc(C(C)=O)ccc1NS(C)(=O)=O | mg/kg | 2.36 |
| CCCOc1cc(C(C)=O)ccc1NS(C)(=O)=O | mg/kg | 2.25 |
| CCOc1cc(C(C)=O)ccc1NS(C)(=O)=O | mg/kg | 1.8 |
| COc1ccc2c(c1)c(CC(=O)O)c(C)n2C(=O)c1ccc(Cl)cc1 | mg/kg | 2.2 |
| CS(=O)(=O)c1ccc(C2=C(c3ccccc3)C(=O)OC2)cc1 | mg/kg | 2.61 |
| CC(=O)c1ccc(NS(C)(=O)=O)c(OC2CCCC2)c1 | mg/kg | 2.31 |

###

Overview of reported Activity across a group of compounds:
# Tested on: Rattus norvegicus
# MEASUREMENT DESCRIPTION: Ulcerogenic activity in Rattus norvegicus Wistar (rat) assessed as length of lesion at 75 mg/kg, po after 6 hr (reference value: 0 mm)
# Format: toxicity, organism-based
# Parameters: dose 75 mg/kg, route oral
# MEASUREMENT PARAMETERS: in vivo

| MOL | READING UNIT | Activity |
| --- | --- | --- |
| CCCOc1cc(C(C)=O)ccc1NS(C)(=O)=O | mm | 1 |
| CCOc1cc(C(C)=O)ccc1NS(C)(=O)=O | mm | 1 |
| CC(=O)c1ccc(NS(C)(=O)=O)c(OC2CCCC2)c1 | mm | 1 |
| CCCCCCCCOc1cc(C(C)=O)ccc1NS(C)(=O)=O | mm | 2 |

###

# Tested on: Rattus norvegicus
# MEASUREMENT DESCRIPTION: Ulcerogenic activity in Rattus norvegicus Wistar (rat) assessed as length of lesion at 25 mg/kg, po after 6 hr (reference value: 0 mm)
# Assay type: toxicity, organism-based
# Design: dose 25 mg/kg, route oral
# MEASUREMENT PARAMETERS: in vivo
Overview of reported Activity across a group of compounds:

| MOL | READING UNIT | Activity |
| --- | --- | --- |
| CC(=O)c1ccc(NS(C)(=O)=O)c(OC2CCCC2)c1 | mm | 0 |
| CCCCCCCCOc1cc(C(C)=O)ccc1NS(C)(=O)=O | mm | 1 |
| CCOc1cc(C(C)=O)ccc1NS(C)(=O)=O | mm | 0 |
| CCCOc1cc(C(C)=O)ccc1NS(C)(=O)=O | mm | 1 |
